In this section, each of the molecules is paired with its reported combination Emax.
Tested on: IA-LM (Non-Small Cell Lung Carcinoma)
method: combination Emax (second highest fraction inhibited in the dose matrix, 72 h); higher = more inhibition; extreme values may be limits of the assay

molecule	combination Emax
Cc1c2c(nn1C)CSCc1cc(n(C)n1)CSc1cc(c3ccccc3c1)OCCCc1c(C(=O)O)n(C)c3c-2c(Cl)ccc13 [AZD5991] + CN(C)CCCOc1ccc(-c2ccc3ncc4c(c3c2)n(C2CCOCC2)c(=O)n4C)cn1 [AZD0156] (first compound max 1 µM, 7x7, partner max 1 µM)	0.257

What does the record list as combination Emax for Cc1c2c(nn1C)CSCc1cc(n(C)n1)CSc1cc(c3ccccc3c1)OCCCc1c(C(=O)O)n(C)c3c-2c(Cl)ccc13 [AZD5991] + CC(=O)O[C@H]1C(=O)[C@@]2(C)[C@H]([C@H](OC(=O)c3ccccc3)[C@]3(O)C[C@H](OC(=O)[C@H](O)[C@@H](NC(=O)c4ccccc4)c4ccccc4)C(C)=C1C3(C)C)[C@]1(OC(C)=O)CO[C@@H]1C[C@@H]2O [Paclitaxel] (first compound max 1 µM, 7x7, partner max 3 µM) ?
0.199

Requested read-out: combination Emax. Entry: COc1cccc(OCCCN)c1-c1cc(Nc2cnc(C#N)cn2)n[nH]1 [Prexasertib] + O=C(c1cc(Cc2n[nH]c(=O)c3ccccc23)ccc1F)N1CCN(C(=O)C2CC2)CC1 [Olaparib] (first compound max 1 µM, 7x7, partner max 10 µM)
0.463

Look up combination Emax for this molecule: COc1cccc(OCCCN)c1-c1cc(Nc2cnc(C#N)cn2)n[nH]1 [Prexasertib] + C=CCn1c(=O)c2cnc(Nc3ccc(N4CCN(C)CC4)cc3)nc2n1-c1cccc(C(C)(C)O)n1 [AZD1775] (first compound max 1 µM, partner max 1 µM)
0.64

----------
Recorded combination Emax values for a group of molecules are listed next.
System: NCI-H3118 (Head and Neck Carcinoma)
method: combination Emax (second highest fraction inhibited in the dose matrix, 72 h); higher = more inhibition; extreme values may be limits of the assay
Respond numerically, and do not add a unit to the figure.

molecule	tested on	combination Emax
CC1(C)CCC(CN2CCN(c3ccc(C(=O)NS(=O)(=O)c4ccc(NCC5CCOCC5)c([N+](=O)[O-])c4)c(Oc4cnc5[nH]ccc5c4)c3)CC2)=C(c2ccc(Cl)cc2)C1 [Venetoclax] + CS(=O)(=O)CCNCc1ccc(-c2ccc3ncnc(Nc4ccc(OCc5cccc(F)c5)c(Cl)c4)c3c2)o1 [Lapatinib] (first compound max 1 µM, 7x7, partner max 10 µM)	NCI-H3118 (Head and Neck Carcinoma)	0.468
Cc1cc2ncnn2cc1Nc1ncc2c(n1)n(C1CCOCC1)c(=O)n2C [AZD7648] + CN(C)CCCOc1ccc(-c2ccc3ncc4c(c3c2)n(C2CCOCC2)c(=O)n4C)cn1 [AZD0156] (first compound max 10 µM, 7x7, partner max 1 µM)	NCI-H3118 (Head and Neck Carcinoma)	0.215

Fill blank: measured combination Emax of the molecule Cc1c2c(nn1C)CSCc1cc(n(C)n1)CSc1cc(c3ccccc3c1)OCCCc1c(C(=O)O)n(C)c3c-2c(Cl)ccc13 [AZD5991] + C1CN(CCC1(C(=O)N[C@@H](CCO)C2=CC=C(C=C2)Cl)N)C3=NC=NC4=C3C=CN4 [Capivasertib] (first compound max 1 µM, 7x7, partner max 3 µM) is ____.
0.245

meta.source: the supplement of paper PMC11061612
